Exercise: for every item that follows, state its recorded IC50.
# TARGET DESC: ZIKV NS5 MTase (WT-MTase) (Zika virus, UniProt A0A024B7W1)
Give bare numbers, in µM.

> print(dat)
                              record.smiles  recorded.value
1  O=c1c(O)cc([C@H]2Oc3cc(O)cc(O)c3C[C@H]2O)cc2c([C@H]3Oc4cc(O)cc(O)c4C[C@H]3O)cc(O)c(O)c12            10.1

Record `Nc1ncnc2c1ncn2[C@@H]1O[C@H](C[C@@H](N)CC[C@H](N)C(=O)O)[C@@H](O)[C@H]1O` has ZIKV NS5 MTase (WT-MTase) (Zika virus, UniProt A0A024B7W1) IC50 equal to 4.03

###

# TARGET DESC: UniProtKB A0A024B7W1
REPORTED METRIC: Kd (µM)
Give bare numbers, in µM.

Record `O=c1c(O)cc([C@H]2Oc3cc(O)cc(O)c3C[C@H]2O)cc2c([C@H]3Oc4cc(O)cc(O)c4C[C@H]3O)cc(O)c(O)c12` has UniProtKB A0A024B7W1 Kd equal to 64.4

###

# TARGET DESC: ZIKV NS5 K105A-MTase (Zika virus, UniProt A0A024B7W1, K2625A)
# PROCEDURE SUMMARY: luminescence-based methyltransferase assay, K105A-MTase
REPORTED METRIC: pIC50
Numbers only, as −log10 of the molar value.

Short answer for O=c1c(O)cc([C@H]2Oc3cc(O)cc(O)c3C[C@H]2O)cc2c([C@H]3Oc4cc(O)cc(O)c4C[C@H]3O)cc(O)c(O)c12 [theaflavin] : pIC50 was 4.42
